Values from ChEMBL document CHEMBL4138067

Below is a list of entries, each paired with its recorded IC50 value.
System: KB
experiment: Cytotoxicity in human KB cells assessed as reduction in cell growth incubated for 72 hrs by neutral red staining based colorimetry
Type: functional

| compound | sign.qualifier | IC50 (µM) |
| --- | --- | --- |
| Cc1c2ccncc2c(C)c2c1[nH]c1ccccc12 [ELLIPTECINE] | = | 1.2 |
| CO[C@@H](C(=O)N[C@@H]1CC[C@H](O)CNC1=O)[C@H](O)[C@@H](O)[C@H](O)/C=C/C(C)(C)C | = | 23.7 |
| CO[C@@H](C(=O)N[C@H]1CC[C@@H](O)CNC1=O)[C@H](O)[C@@H](O)[C@H](O)/C=C/C(C)(C)C | = | 62.6 |
| CO[C@@H](C(=O)N[C@H]1CCCCNC1=O)[C@H](O)[C@@H](O)[C@H](O)/C=C/C(C)(C)C | = | 21 |
| CO[C@@H](C(=O)N[C@H]1CC[C@H](O)CNC1=O)[C@H](O)[C@@H](O)[C@H](O)/C=C/C(C)(C)C | = | 19.8 |
| CO[C@@H](C(=O)N[C@@H]1CC[C@@H](O)CNC1=O)[C@H](O)[C@@H](O)[C@H](O)/C=C/C(C)(C)C | = | 5.1 |
| CO[C@@H](C(=O)N[C@@H]1CCCCNC1=O)[C@@H]1OC(C)(C)O[C@H](/C=C/C(C)(C)C)[C@@H]1O | > | 150 |
| CO[C@@H](C(=O)N[C@@H]1CCCCNC1=O)[C@H](O)[C@@H](O)[C@H](O)/C=C/C(C)(C)C | = | 1.1 |
| CO[C@@H](C(=O)N[C@H]1CCCCNC1=O)[C@@H]1OC(C)(C)O[C@H](/C=C/C(C)(C)C)[C@@H]1O | > | 150 |
